Molecular target: 5-HT3AB receptors (Homo sapiens)
Sequence (P46098 24-478): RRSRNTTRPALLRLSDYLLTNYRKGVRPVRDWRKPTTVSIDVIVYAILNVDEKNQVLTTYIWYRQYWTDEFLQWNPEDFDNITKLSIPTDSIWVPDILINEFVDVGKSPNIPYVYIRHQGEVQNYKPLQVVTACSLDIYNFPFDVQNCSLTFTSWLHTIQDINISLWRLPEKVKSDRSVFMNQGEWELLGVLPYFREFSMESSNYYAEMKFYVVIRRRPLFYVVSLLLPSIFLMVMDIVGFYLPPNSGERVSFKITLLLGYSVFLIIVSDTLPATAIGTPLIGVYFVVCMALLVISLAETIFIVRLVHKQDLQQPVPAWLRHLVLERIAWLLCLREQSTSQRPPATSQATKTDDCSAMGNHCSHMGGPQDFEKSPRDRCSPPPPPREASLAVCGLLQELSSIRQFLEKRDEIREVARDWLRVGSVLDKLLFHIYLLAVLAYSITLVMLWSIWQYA
Sequence (O95264 22-441 partner): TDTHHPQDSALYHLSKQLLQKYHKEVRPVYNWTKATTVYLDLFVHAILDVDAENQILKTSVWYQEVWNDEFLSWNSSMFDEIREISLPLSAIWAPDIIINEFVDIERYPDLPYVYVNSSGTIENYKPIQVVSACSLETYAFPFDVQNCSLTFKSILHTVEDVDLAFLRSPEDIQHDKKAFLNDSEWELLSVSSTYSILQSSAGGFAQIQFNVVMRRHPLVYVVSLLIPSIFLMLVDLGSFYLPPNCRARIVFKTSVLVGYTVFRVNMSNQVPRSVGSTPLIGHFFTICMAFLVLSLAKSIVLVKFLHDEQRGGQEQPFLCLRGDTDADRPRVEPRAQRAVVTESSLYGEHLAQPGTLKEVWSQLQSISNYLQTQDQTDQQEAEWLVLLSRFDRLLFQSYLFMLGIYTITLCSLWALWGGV
observable: pKd
// pKd is dimensionless: -log10 of concentration (M)

QUERY: Which pKd value is on record for O=C1c2cccc3c2[C@H](CCC3)CN1[C@@H]1CN2CCC1CC2 [[^3H]palonosetron] ?
RESULT: 9.82

----------
Target: 5-HT3A receptors (Homo sapiens)
Construct: expressed in transfected cells; host or cells: HEK293
Sequence (P46098 24-478): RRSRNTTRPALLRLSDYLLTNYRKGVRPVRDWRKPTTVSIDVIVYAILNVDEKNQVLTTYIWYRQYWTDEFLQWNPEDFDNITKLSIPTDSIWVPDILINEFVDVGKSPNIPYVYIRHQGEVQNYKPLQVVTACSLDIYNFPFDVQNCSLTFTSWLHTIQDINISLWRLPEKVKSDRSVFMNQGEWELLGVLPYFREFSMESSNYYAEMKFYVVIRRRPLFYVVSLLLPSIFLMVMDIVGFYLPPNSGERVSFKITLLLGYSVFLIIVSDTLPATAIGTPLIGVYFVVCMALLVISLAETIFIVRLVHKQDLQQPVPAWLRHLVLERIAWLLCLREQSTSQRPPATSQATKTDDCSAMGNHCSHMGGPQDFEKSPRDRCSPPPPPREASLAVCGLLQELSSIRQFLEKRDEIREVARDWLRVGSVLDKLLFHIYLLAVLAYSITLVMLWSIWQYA
Assay: Flexstation membrane potential dye assay, inhibition of 5-HT-induced responses
Assay type: cell-based
Settings: palonosetron co-applied with 5-HT; HEK293 cells; read-out: IC50
observable: IC50 (nM)
Report the figure in nM without appending any unit label.

QUERY: Which IC50 value is on record for O=C1c2cccc3c2[C@H](CCC3)CN1[C@@H]1CN2CCC1CC2 [Palonosetron, palonosetron] ?
RESULT: 83

----------
molecular target: 5-HT3A receptors (Homo sapiens, UniProt P46098); construct: expressed in transfected cells; host or cells: HEK293; test: [3H]granisetron competition binding, HEK293 membranes; settings: displacement of [3H]granisetron, 4 °C
observable: IC50 (nM)
Report the figure in nM without appending any unit label.

QUERY: Which IC50 value is on record for O=C1c2cccc3c2[C@H](CCC3)CN1[C@@H]1CN2CCC1CC2 ?
RESULT: 0.6

----------
target: 5-HT3A receptors (Homo sapiens, UniProt P46098); construct: expressed in transfected cells; host or cells: HEK293; assay: Flexstation membrane potential dye assay, inhibition of 5-HT-induced responses; type: cell-based; conditions: palonosetron preincubated 45 min before 5-HT; HEK293 cells; read-out: IC50
observable: IC50 (nM)
Report the figure in nM without appending any unit label.

QUERY: Request - read-out IC50 | tested on 5-HT3A receptors (Homo sapiens, UniProt P46098) | compound O=C1c2cccc3c2[C@H](CCC3)CN1[C@@H]1CN2CCC1CC2
RESULT: 0.24

----------
Target: 5-HT3AB receptors (Homo sapiens, UniProt P46098)
Construct: expressed in transfected cells; host or cells: HEK293
Sequence (P46098 24-478): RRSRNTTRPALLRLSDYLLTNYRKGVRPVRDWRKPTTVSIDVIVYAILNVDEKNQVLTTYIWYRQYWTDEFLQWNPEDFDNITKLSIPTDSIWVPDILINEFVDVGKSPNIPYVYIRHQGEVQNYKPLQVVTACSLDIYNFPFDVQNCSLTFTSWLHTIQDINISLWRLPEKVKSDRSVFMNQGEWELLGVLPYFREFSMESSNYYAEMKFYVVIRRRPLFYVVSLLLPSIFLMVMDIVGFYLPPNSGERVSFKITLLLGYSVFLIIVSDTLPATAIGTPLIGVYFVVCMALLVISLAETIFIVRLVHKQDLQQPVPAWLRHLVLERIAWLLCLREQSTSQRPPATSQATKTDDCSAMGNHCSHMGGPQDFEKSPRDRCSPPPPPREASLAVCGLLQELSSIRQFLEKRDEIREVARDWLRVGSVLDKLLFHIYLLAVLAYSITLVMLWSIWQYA
Sequence (O95264 22-441 partner): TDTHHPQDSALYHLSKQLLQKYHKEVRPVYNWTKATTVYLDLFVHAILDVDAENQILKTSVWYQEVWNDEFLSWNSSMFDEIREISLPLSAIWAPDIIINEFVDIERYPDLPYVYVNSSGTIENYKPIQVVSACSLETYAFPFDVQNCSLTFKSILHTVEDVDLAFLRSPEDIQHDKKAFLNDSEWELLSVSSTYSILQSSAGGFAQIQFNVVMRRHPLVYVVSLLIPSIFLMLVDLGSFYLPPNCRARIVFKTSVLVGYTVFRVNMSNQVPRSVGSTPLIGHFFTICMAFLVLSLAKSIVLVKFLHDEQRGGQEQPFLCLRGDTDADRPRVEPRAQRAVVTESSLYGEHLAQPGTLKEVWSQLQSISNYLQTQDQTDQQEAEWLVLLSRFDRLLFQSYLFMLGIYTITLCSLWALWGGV
Assay: [3H]granisetron competition binding, HEK293 membranes
Conditions: displacement of [3H]granisetron, 4 °C
observable: IC50 (nM)
Report the figure in nM without appending any unit label.

QUERY: Which IC50 value is on record for O=C1c2cccc3c2[C@H](CCC3)CN1[C@@H]1CN2CCC1CC2 ?
RESULT: 0.71

----------
Biological target: 5-HT3AB receptors (Homo sapiens, UniProt P46098)
Construct: expressed in transfected cells; host or cells: HEK293
Sequence (P46098 24-478): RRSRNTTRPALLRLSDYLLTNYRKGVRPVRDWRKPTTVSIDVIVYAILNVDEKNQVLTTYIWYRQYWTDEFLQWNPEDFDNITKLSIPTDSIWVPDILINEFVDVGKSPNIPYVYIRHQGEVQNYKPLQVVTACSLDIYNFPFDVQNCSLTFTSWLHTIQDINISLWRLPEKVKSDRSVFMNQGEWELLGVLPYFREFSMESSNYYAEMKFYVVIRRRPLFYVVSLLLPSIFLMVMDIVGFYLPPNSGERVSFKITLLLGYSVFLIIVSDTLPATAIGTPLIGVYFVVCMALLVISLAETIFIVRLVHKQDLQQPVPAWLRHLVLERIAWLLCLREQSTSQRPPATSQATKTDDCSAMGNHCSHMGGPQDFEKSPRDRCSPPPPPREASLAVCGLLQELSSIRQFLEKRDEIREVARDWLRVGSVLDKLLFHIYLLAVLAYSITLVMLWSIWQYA
Sequence (O95264 22-441 partner): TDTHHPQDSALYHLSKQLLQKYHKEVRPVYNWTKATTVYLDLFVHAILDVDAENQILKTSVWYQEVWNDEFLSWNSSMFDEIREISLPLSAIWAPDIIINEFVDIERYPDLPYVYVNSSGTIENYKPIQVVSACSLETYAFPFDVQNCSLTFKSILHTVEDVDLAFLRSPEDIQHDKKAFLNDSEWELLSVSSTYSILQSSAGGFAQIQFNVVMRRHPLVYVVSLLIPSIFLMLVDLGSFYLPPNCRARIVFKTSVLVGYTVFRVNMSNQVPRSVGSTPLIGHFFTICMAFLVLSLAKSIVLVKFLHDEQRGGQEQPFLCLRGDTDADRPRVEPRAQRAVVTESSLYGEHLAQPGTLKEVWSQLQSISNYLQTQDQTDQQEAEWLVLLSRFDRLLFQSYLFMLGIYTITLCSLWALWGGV
Assay: [3H]granisetron competition binding, HEK293 membranes
Conditions: displacement of [3H]granisetron; Cheng–Prusoff
observable: Ki (nM)
Report the figure in nM without appending any unit label.

QUERY: Which Ki value is on record for O=C1c2cccc3c2[C@H](CCC3)CN1[C@@H]1CN2CCC1CC2 ?
RESULT: 0.35
